Target entity: T1, mouse TREM2 on BWZ cells (mouse, UniProt Q99NH8 19-227)
T1 construct: whole, on cells; also called BWZ Mouse TREM2
T1 sequence (looked up): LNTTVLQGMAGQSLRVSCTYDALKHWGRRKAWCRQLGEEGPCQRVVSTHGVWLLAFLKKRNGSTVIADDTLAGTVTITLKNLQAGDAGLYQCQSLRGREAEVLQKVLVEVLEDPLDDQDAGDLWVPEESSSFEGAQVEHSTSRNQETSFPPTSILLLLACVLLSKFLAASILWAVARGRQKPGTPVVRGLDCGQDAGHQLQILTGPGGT
Experiment notes: FACS, BWZ cells

{"columns": ["Binder", "binding result"],
 "data": [
  ["T1-27 (antibody, IgG1, V domains shown, huIgG1; also called TI-27) VH: QVQLQESGPGLVKPSQTLSLTCTVSGGSISSGGYYWSWIRQHPGKGLEWIGYIYYSGSTYYNPSLKSRVTISVDTSKNQFSLKLSSVTAADTAVYYCARDSSIAGRATLSFDYWGQGTLVTVSS VL: DIQMTQSPSSLSASVGDRVTITCRASQSISSYLNWYQQKPGKAPKLLIYAASSLQSGVPSRFSGSGSGTDFTLTISSLQPEDFATYYCQQSFYDPITFGGGTKVEIK", "no binding"],
  ["T1-51 (antibody, IgG1, V domains shown, huIgG1; also called TI-51; ADI-19126) VH: QVQLVQSGAEVKKPGSSVKVSCKASGGTFSSYAISWVRQAPGQGLEWMGSIIPIFGTANYAQKFQGRVTITADESTSTAYMELSSLRSEDTAVYYCARSGGYSSSWYGTGYDYWGQGTLVTVSS VL: DIQMTQSPSTLSASVGDRVTITCRASQSISSWLAWYQQKPGKAPKLLIYKASSLESGVPSRFSGSGSGTEFTLTISSLQPDDFATYYCQQFQSYPFTFGGGTKVEIK", "no binding"],
  ["T1-17 (antibody, IgG1, V domains shown, huIgG1; also called TI-17; ADI-19084) VH: QVQLQESGPGLVKPSETLSLTCTVSGGSISSYYWSWIRQPPGKGLEWIGSIYYSGSTNYNPSLKSRVTISVDTSKNQFSLKLSSVTAADTAVYYCARGAPGGRHNWFDPWGQGTLVTVSS VL: DIQMTQSPSSLSASVGDRVTITCQASQDISNYLNWYQQKPGKAPKLLIYDASNLATGVPSRFSGSGSGTDFTFTISSLQPEDIATYYCQQSDIHPRTFGGGTKVEIK", "no binding"]
]}
